# experimentalSystem: T1, angiotensin-converting enzyme (ACE) from rabbit lung (rabbit) (UniProt P12822)
# T1 sequence: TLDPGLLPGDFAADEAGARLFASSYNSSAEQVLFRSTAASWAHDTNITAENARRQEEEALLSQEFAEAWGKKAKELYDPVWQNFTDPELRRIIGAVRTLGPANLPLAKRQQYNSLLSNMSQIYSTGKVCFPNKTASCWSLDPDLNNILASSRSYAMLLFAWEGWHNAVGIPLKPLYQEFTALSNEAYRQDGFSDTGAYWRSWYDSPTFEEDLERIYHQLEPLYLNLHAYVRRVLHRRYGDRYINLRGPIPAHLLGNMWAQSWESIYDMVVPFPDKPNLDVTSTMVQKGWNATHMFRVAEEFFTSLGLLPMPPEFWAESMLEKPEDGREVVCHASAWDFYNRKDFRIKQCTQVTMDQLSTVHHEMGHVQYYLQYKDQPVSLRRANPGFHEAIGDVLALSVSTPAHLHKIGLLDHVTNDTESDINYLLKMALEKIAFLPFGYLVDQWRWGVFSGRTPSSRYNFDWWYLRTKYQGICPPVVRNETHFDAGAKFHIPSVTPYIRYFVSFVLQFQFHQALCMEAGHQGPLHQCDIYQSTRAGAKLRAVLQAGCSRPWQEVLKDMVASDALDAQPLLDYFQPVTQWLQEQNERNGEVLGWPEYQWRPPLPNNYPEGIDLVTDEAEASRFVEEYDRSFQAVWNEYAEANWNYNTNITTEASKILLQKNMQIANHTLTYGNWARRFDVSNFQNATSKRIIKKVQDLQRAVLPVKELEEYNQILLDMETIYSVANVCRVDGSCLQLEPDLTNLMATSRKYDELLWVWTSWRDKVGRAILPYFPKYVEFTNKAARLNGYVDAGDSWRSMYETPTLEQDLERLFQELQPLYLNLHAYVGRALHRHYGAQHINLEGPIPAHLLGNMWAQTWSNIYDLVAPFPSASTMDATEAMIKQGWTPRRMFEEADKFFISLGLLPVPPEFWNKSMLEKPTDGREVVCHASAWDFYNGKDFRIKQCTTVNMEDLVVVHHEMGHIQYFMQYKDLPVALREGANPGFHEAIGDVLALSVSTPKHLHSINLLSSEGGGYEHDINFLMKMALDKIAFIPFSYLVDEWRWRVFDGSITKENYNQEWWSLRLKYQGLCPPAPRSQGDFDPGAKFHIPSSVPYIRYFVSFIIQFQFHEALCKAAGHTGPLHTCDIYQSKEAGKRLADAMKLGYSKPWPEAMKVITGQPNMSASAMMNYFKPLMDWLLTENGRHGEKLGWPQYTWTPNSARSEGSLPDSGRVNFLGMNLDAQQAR
valueKind: ACE inhibitory activity (substrate HHL, hippuric acid by HPLC), peptide at 1 mg/mL (%)

TTPSYVAFTDTER	26.7
VALSSLRP	91.7

[I] NPDDITNEEYGEFYK
[II] QFQPGFSSS
[III] STGEAFVQFASQEIAEK
Req: Arrange items by their ACE inhibitory activity (substrate HHL, hippuric acid by HPLC), peptide at 1 mg/mL values in increasing order. Give the order by naming the labels one after another as requested.
Resp: III, I, II
